The reported measurements were obtained from patent US8609836B2.

Molecular target: CDK1/CyclinB (h) (Homo sapiens)
Sequence (P06493 whole entry): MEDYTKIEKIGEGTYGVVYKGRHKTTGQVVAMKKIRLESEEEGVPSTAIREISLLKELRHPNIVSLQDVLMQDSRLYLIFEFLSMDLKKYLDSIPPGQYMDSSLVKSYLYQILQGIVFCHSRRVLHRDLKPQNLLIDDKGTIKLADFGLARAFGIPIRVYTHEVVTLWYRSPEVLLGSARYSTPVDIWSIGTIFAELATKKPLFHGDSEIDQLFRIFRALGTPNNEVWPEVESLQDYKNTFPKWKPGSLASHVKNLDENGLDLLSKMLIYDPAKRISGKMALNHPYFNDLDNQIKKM
Sequence (P14635 whole entry partner): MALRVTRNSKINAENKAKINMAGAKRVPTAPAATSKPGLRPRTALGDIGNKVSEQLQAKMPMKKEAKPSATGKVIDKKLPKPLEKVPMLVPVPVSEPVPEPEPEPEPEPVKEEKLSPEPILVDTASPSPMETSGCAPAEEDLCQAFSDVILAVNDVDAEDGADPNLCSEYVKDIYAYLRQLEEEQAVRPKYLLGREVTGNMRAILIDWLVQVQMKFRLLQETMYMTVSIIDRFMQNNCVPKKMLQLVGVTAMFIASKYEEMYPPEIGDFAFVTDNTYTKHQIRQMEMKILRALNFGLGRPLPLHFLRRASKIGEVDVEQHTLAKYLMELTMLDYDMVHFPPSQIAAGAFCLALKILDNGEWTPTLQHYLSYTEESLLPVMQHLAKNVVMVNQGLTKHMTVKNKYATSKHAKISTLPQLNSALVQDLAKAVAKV
Assay: CDK1/CyclinB human kinase inhibition, Invitrogen's FRET assay (Z'lyte)
Assay type: biochemical
Details: read-out: CDK1 pIC50 (converted)
Endpoint name: IC50

Solved cases below.
1) CN1CCC(NC(=O)c2ccc3cc2CN2CCC[C@H]2C(=O)NCc2cccc(c2)-c2ccnc(n2)N3)CC1 : 2 µM
2) O=C1NCCCOc2cccc(c2)-c2ccnc(n2)Nc2ccc(N3CCOCC3)c(c2)CN[C@H]1Cc1ccccc1 : > 10 µM
3) O=C1NCCCOc2cccc(c2)-c2ccnc(n2)Nc2ccc(N3CCOCC3)c(c2)CN2C[C@H](O)C[C@@H]12 : > 10 µM
4) COc1ccc2cc1CN1CCC(CC1)C(=O)N(C)CCN(C)c1ccc(cn1)-c1ccnc(n1)N2 : > 10 µM
5) COc1cc2cc(c1)Nc1nccc(n1)-c1ccc(cc1)CN(C)CCNC(=O)C1CCN(CC1)C2 : > 10 µM
6) CN1CCCNC(=O)C2CCN(CC2)Cc2cc(Br)cc(c2)Nc2nccc(n2)-c2ccc(cc2)C1 : > 10 µM
7) CN1CCNC(=O)CN2CCN(CC2)Cc2cc(Br)cc(c2)Nc2nccc(n2)-c2ccc(cc2)C1 : 4.17 µM
8) COc1ccc2cc1CN(C)CCNC(=O)CN1CCN(CC1)Cc1cc(Br)cc(c1)Nc1nccc-2n1 : > 10 µM

Input O=C1NCc2cccc(c2)-c2ccnc(n2)Nc2cc(CNC3CCCCC3)cc(c2)CN2CCC[C@@H]12 . Output IC50: 0.457 µM

Input CN1CCCNC(=O)CN2CCN(CC2)Cc2cc(cc(N3CCOCC3)c2)Nc2nccc(n2)-c2ccc(cc2)C1 . Output IC50: > 10 µM

Input CN1CCNC(=O)[C@@H]2CCCN2Cc2cccc(c2)Nc2nccc(n2)-c2ccc(cc2)C1 . Output IC50: > 10 µM

Input C[C@H]1NCc2cc(ccc2N2CCOCC2)Nc2nccc(n2)-c2ccc(cc2)OCCCNC1=O . Output IC50: > 10 µM

Input C[C@@H]1NCc2cc(ccc2N2CCOCC2)Nc2nccc(n2)-c2cccc(c2)OCCCNC1=O . Output IC50: 4.79 µM

Input COc1ccc2cc1CN(C)CCCNC(=O)C1CCN(CC1)Cc1cc(cc(NC(C)C)c1)Nc1nccc-2n1 . Output IC50: > 10 µM

Input COc1ccc2cc1CNCCNC(=O)[C@@H]1CCCN1Cc1cc(ccc1N1CCOCC1)Nc1nccc-2n1 . Output IC50: > 10 µM

---

Target: PLK4 (h) (Homo sapiens, UniProt O00444)
Sequence (O00444 whole entry): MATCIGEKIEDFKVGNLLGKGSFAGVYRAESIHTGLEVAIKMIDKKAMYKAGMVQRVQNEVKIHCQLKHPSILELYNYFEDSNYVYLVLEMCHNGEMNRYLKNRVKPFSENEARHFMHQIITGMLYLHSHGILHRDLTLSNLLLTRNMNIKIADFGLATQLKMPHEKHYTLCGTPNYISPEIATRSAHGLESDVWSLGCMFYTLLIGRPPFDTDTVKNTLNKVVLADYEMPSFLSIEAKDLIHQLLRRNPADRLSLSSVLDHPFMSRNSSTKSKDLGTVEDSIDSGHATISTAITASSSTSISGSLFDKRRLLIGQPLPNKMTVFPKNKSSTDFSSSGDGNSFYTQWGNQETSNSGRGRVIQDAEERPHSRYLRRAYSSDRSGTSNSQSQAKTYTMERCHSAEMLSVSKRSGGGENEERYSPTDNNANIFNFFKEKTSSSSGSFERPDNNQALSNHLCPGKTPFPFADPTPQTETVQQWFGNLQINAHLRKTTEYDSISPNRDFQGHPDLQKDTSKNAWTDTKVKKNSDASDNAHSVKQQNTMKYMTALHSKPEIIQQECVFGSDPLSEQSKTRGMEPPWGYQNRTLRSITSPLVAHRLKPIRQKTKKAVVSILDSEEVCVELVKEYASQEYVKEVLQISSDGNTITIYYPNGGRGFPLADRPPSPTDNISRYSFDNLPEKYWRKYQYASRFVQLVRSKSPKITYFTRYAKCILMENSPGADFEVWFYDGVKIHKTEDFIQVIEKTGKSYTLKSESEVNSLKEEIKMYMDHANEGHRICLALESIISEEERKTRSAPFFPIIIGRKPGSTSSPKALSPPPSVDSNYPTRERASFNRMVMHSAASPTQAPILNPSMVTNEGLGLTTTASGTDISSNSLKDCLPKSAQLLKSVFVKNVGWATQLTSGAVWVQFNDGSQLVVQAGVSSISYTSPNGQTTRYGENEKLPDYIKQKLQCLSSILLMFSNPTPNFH
Assay: PLK-4 human kinase inhibition, scintillation proximity assay (SPA)
Format: biochemical
Conditions: read-out: PLK4 pIC50 (converted)
Endpoint name: IC50 (nM)

1) CN1CCNC(=O)CN2CCN(CC2)Cc2cccc(c2)Nc2nccc(n2)-c2ccc(cc2)C1 : 1620

(I) COc1cc2cc(c1OC)CNC(=O)[C@H](CO)NCc1cccc(c1)-c1ccnc(n1)N2
(II) O=C1CN2CCN(CC2)Cc2cc(ccc2N2CCOCC2)Nc2nccc(n2)-c2cccc(c2)OCCN1
(III) COc1cc2cc(c1)Nc1nccc(n1)-c1ccc(OC)c(c1)CN(C)CCNC(=O)[C@@H]1CCCN1C2
(IV) O=C1NCCNc2cc(ccn2)-c2ccnc(n2)Nc2ccc(N3CCOCC3)c(c2)CN2CCC1CC2
Q) Put the molecules in ascending order of IC50. Answer by listing the labels in the requested order.
A) I, II, III, IV
(I: 363 nM, II: 794 nM, III: 2040 nM, IV: 5370 nM)
